Source of measurements: patent US20060142337A1

Biological target: substance P receptor (Homo sapiens)
Construct: endogenous in cells; host or cells: IM-9 human lymphoblast cells (membrane preparation)
Sequence (P25103 whole entry): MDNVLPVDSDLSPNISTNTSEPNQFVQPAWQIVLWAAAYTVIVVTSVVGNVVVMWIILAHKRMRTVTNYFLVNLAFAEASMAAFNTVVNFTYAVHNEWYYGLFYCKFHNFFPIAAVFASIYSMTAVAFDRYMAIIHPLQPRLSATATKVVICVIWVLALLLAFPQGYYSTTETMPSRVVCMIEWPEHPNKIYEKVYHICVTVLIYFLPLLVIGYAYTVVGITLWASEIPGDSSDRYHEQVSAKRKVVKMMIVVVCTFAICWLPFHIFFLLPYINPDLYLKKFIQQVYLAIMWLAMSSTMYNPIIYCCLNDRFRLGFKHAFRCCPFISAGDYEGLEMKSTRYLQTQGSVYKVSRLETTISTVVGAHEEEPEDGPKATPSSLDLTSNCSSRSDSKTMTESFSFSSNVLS
Assay: Radioligand receptor binding inhibitory activity using receptor from human lymphoblast cells (IM-9)
Conditions: [125I]-BHSP binding, receptor from IM-9 cells, 25 C, 30 min
Protocol: Radioligand receptor binding inhibitory activity (Binding inhibitory activity using receptor from human lymphoblast cells (IM-9)) The method of M. A. Cascieri et al., “Molecular Pharmacology 42, p. 458 (1992)” was modified and used. The receptor was. prepared from human lymphoblast cells (IM-9). IM-9 cells (2×10^5 cells/mL) were incubated for 3 days (one liter), which was then subjected to centrifuge for 5 min. at 500×G to obtain cell pellets. […]
Parameter Measured: pIC50
Lab note: report pIC50 as minus log10 of the concentration in molar units, number only.

Below: 2 compounds and their reported pIC50.
> print(dat)
                                   compound  parameter.measured  meas.value
1  CCNC(=O)[C@H]1CC[C@H](C(=O)N2CC[C@H](O[C@H](C)c3cc(C(F)(F)F)cc(C(F)(F)F)c3)[C@H](c3ccccc3)C2)CC1               pIC50       10.00
2  CC(=O)NCC(=O)N1CCC(C(=O)N2CC[C@H](O[C@H](C)c3cc(C(F)(F)F)cc(C(F)(F)F)c3)[C@H](c3ccccc3)C2)CC1               pIC50       10.60

--- query ---
Ask: Dear colleague, I am looking for the recorded pIC50 of the following compound: COc1ccc(-n2nnnc2C(F)(F)F)cc1C(C)N[C@H]1CCN(C(=O)C2CCN(C(C)=O)CC2)C[C@H]1c1ccccc1 (single isomer, unassigned)
Result: 10.24
